- assay info: chemical genetic growth profiling, strain panel (AID 1159580);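 further: tested at 20 µM; growth read once vehicle control cultures reached saturation at 30 °C; 1 = growth at the plate median or of vehicle wells; lower values mean less growth of the strain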
- measurement context: S. cerevisiae deletion strains, growth OD, locus YDR318W, strain mcm21, active compounds read low
The whole screen tested about 5,500 compounds, of which about 2,000 (36%) were called active. Not shown: some 18% with an inconclusive outcome. The list shows a part of the results.
readout name: normalized growth

{"columns": ["compound", "reported value"],
 "data": [
  ["COc1cc(OC)c2c3c1C(=O)c1c(OC)cc(C)c4c(OC)cc(c-3c14)C(C)(C)C2=O", 0.98],
  ["CC(=O)OCC(=O)[C@@]1(O)[C@H](OC(C)=O)CC2C3CCC4=CC(=O)C=C[C@]4(C)[C@@]3(F)[C@@H](O)C[C@@]21C (some centres not stated)", 0.994],
  ["CCN(CC)CCOC(=O)C(c1ccccc1)c1ccccc1", 0.986],
  ["COc1ccc(C(=O)CC(=O)c2ccc(C(C)(C)C)cc2)cc1", 0.994],
  ["Cc1cc(C)cc(OCC2CNC(=O)O2)c1 (configuration not stated)", 1.02],
  ["COC(=O)c1c(C)cc(OC(=O)c2c(C)c(Cl)c(O)c(C=O)c2O)c(C)c1O", 0.99],
  ["CCC(=O)Nc1ccc(Cl)c(Cl)c1", 0.996],
  ["S=P(N1CC1)(N1CC1)N1CC1", 1.01],
  ["NCC(CC(=O)O)c1ccc(Cl)cc1 (configuration not stated)", 0.993],
  ["CC(=O)N=c1sc(S(N)(=O)=O)nn1C", 1.02],
  ["C=C[C@H]1CN2CC[C@H]1C[C@@H]2[C@H](O)c1ccnc2ccccc12", 0.985],
  ["CC12CC3CC(C)(C1)CC(N)(C3)C2", 1.02],
  ["Cc1nc2ccccn2c(=O)c1CCN1CCC(C(=O)c2ccc(F)cc2)CC1", 0.983],
  ["CN1CCN(C2=Nc3ccccc3Oc3ccc(Cl)cc32)CC1", 0.977],
  ["Nc1ccn(C2O[C@H](CO)[C@@H](O)[C@H]2O)c(=O)n1 (some centres not stated)", 0.998],
  ["N[C@@H](Cc1cc(I)c(Oc2ccc(O)c(I)c2)c(I)c1)C(=O)O", 0.982],
  ["CCCCC[C@H](CC(=O)NO)C(=O)N[C@H](C(=O)N1CCC[C@H]1CO)C(C)C", 1.01],
  ["C[C@@H]1O[C@@H](O[C@H]2C[C@@H](O)[C@]3(CO)C4C(CC[C@]3(O)C2)[C@@]2(O)CC[C@H](C3=CC(=O)OC3)[C@@]2(C)C[C@H]4O)[C@H](O)[C@H](O)[C@H]1O (some centres not stated)", 0.998],
  ["C[C@@H](N)[C@@H](O)c1ccccc1", 0.978],
  ["N[C@@H]1[C@@H](O)[C@H](O)[C@@H](CO)O[C@H]1O", 1],
  ["COc1cc2c(cc1-c1cc3cc4ccoc4cc3oc1=O)OCO2", 0.973],
  ["N[C@H](Cc1ccccc1)C(=O)O", 0.993],
  ["COc1cc(S(C)=O)ccc1-c1nc2ncccc2[nH]1 (configuration not stated)", 0.997],
  ["CN(C)C(=O)Nc1ccc(Cl)c(Cl)c1", 0.994],
  ["NC(N)=NCCC[C@@H](NC(=O)[C@@H](N)Cc1ccc(O)cc1)C(=O)O", 1.01],
  ["CCCCSP(=O)(SCCCC)SCCCC", 1.01],
  ["Cc1cc(O)c(C=O)c2c1C(=O)Oc1c(COC(=O)/C=C/C(=O)O)c(O)c(C(=O)O)c(C)c1O2", 0.991],
  ["COc1ccc(C(=O)N2CCCC2=O)cc1", 0.996],
  ["Clc1ccc2c(c1)C(N1CCNCC1)=Nc1ccccc1O2", 0.993],
  ["COc1c2ccoc2nc2c(OC)c(OCC(O)C(C)(C)O)ccc12 (configuration not stated)", 0.981],
  ["CCOC(=O)[C@H](CCc1ccccc1)N[C@@H](C)C(=O)N1Cc2ccccc2C[C@H]1C(=O)O", 1.01],
  ["C[C@]12C=CC(=O)C=C1CCC1C3C[C@@H](O)[C@](O)(C(=O)CO)[C@@]3(C)C[C@H](O)[C@@]12F (some centres not stated)", 0.985],
  ["C[C@@H]1CC2C3C[C@H](F)C4=CC(=O)C=C[C@]4(C)[C@@]3(F)[C@@H](O)C[C@]2(C)[C@@]1(O)C(=O)COC(=O)C(C)(C)C (some centres not stated)", 1.01],
  ["CCCCCC1C(=O)CCC1CC(=O)O (configuration not stated)", 0.992],
  ["C[C@H](N)[C@H](O)c1cccc(O)c1", 0.997],
  ["CN(C)CCC(c1ccc(Br)cc1)c1ccccn1 (configuration not stated)", 0.985],
  ["CN(C)N=Nc1nc[nH]c1C(N)=O", 1]
]}

Entry source: PubChem BioAssay AID1159580
